Value source: patent US7544687B2

readoutType: melting point

Worked examples, 5 compounds total:
>>> measured("Cc1oc(-c2ccccc2)nc1CCOc1ccc(C[C@@H](C(=O)O)N2CCN(S(=O)(=O)c3ccc(F)cc3)CC2)cc1 [Example 4]")
"198 to 200 °C"
>>> measured("Cc1oc(-c2ccccc2)nc1CCOc1ccc(C[C@@H](C(=O)O)N2CCN(c3ccccc3)CC2)cc1Br [Example 10]")
"220 to 222 °C"
>>> measured("Cc1oc(-c2ccccc2)nc1CCOc1ccc(C[C@@H](C(=O)O)N2CCN(S(=O)(=O)c3ccccc3[N+](=O)[O-])CC2)cc1 [Example 6]")
"171 to 173 °C"
>>> measured("Cc1oc(-c2ccccc2)nc1CCOc1ccc(C[C@@H](C(=O)O)N2CCN(S(=O)(=O)c3ccccc3F)CC2)cc1 [Example 3]")
"170 to 172 °C"
>>> measured("Cc1oc(-c2ccccc2)nc1CCOc1ccc(C[C@@H](C(=O)O)N2CCN(c3cccc(Cl)c3)CC2)cc1 [Example 7]")
"138 to 139 °C"

Note: attention shifts to another entry.
Consider the compound shown here: Cc1oc(-c2ccccc2)nc1CCOc1ccc(C[C@@H](C(=O)O)N2CCN(c3ccccc3)CC2)cc1 [Example 8] What is its recorded melting point? 218 to 220 °C
